EXPERIMENTAL_TARGET: PKD2 (Homo sapiens)
Construct: made in house; host or cells: HEK293T cells, transient transfection with pDEST27-PRKD2, stimulated with 500 nM PDB before lysis
METHOD: PKD2 screening assay (in vitro radiometric kinase assay)
Assay type: biochemical
ASSAY_CONDITIONS: PDB stimulated GST-PKD2, Syntide-2, 25µM ATP, radiometric
MEASUREMENT_LABEL: IC50 (nM)

COMPOUND: CC(C)(C)n1nc(Cc2ccccc2Br)c2c(N)ncnc21
IC50 [nM]: 535
//
COMPOUND: CC(C)(C)n1nc(-c2cccc3ccccc23)c2c(N)ncnc21
IC50 [nM]: 403
//
COMPOUND: CC(C)(C)n1nc(-c2ccccc2)c2c(N)ncnc21
IC50 [nM]: 9490

1. CC(C)(C)n1nc(-c2cc3ccccc3s2)c2c(N)ncnc21
2. CCCCNc1nc(N)c2c(-c3cccc4ccccc34)nn(C(C)(C)C)c2n1 [Compound 13h]
stdin: Of 1 and 2 , which one carries the higher reported IC50? Answer with the label corresponding to your selection.
stdout: 2
(2: 8170 nM, 1: 2210 nM)

P. CC(C)(C)n1nc(-c2c[nH]c3ccccc23)c2c(N)ncnc21
Q. CC(C)(C)n1nc(Cc2ccccc2)c2c(N)ncnc21
R. Cn1nc(Cc2cccc(Cl)c2)c2c(N)ncnc21
stdin: Please put the entries in order of rising IC50. Form entry: ranked labels (order as requested).
stdout: P, Q, R
(P: 33 nM, Q: 449 nM, R: 4840 nM)

* * *

EXPERIMENTAL_TARGET: PKD2 (Homo sapiens)
Construct: made in house; host or cells: HEK293T cells, transient transfection with pDEST27-PRKD2, stimulated with 500 nM PDB before lysis
METHOD: PKD2 screening assay (in vitro radiometric kinase assay)
Assay type: biochemical
ASSAY_CONDITIONS: 10 min; compound at 1 μM; PDB stimulated GST-PKD2, Syntide-2, 25µM ATP; relative to no inhibitor (DMSO); read-out: % PKD 2 activity remaining (1 μM) (Average ± SD)
MEASUREMENT_LABEL: remaining activity at 1 µM (%)

Consider the worked cases shown below.
MOLECULE: Cn1nc(Cc2cccc3ccccc23)c2c(N)ncnc21
remaining activity at 1 µM (%): 64

MOLECULE: CC(C)(C)n1nc(-c2ccccc2)c2c(N)ncnc21
remaining activity at 1 µM (%): 76

MOLECULE: CC(C)(C)n1nc(Cc2cccc3ccccc23)c2c(N)ncnc21 [Compound 1, reference compound]
remaining activity at 1 µM (%): 23

MOLECULE: CC(C)(C)n1nc(CCCCc2ccccc2)c2c(N)ncnc21
remaining activity at 1 µM (%): 93

MOLECULE: CC(C)(C)n1nc(Cc2ccccc2Br)c2c(N)ncnc21
remaining activity at 1 µM (%): 43

P. CCCCNc1nc(N)c2c(-c3cccc4ccccc34)nn(C(C)(C)C)c2n1 [Compound 13h]
Q. CC(C)(C)n1nc(Cc2cccc(Cl)c2)c2c(N)ncnc21
stdin: Of P and Q , which one carries the higher reported remaining activity at 1 µM? Answer with the label corresponding to your selection.
stdout: P

* * *

EXPERIMENTAL_TARGET: PKD2 (Homo sapiens, UniProt Q9BZL6)
Construct: made in house; host or cells: HEK293T cells, transient transfection with pDEST27-PRKD2, stimulated with 500 nM PDB before lysis
Sequence (Q9BZL6 1-878): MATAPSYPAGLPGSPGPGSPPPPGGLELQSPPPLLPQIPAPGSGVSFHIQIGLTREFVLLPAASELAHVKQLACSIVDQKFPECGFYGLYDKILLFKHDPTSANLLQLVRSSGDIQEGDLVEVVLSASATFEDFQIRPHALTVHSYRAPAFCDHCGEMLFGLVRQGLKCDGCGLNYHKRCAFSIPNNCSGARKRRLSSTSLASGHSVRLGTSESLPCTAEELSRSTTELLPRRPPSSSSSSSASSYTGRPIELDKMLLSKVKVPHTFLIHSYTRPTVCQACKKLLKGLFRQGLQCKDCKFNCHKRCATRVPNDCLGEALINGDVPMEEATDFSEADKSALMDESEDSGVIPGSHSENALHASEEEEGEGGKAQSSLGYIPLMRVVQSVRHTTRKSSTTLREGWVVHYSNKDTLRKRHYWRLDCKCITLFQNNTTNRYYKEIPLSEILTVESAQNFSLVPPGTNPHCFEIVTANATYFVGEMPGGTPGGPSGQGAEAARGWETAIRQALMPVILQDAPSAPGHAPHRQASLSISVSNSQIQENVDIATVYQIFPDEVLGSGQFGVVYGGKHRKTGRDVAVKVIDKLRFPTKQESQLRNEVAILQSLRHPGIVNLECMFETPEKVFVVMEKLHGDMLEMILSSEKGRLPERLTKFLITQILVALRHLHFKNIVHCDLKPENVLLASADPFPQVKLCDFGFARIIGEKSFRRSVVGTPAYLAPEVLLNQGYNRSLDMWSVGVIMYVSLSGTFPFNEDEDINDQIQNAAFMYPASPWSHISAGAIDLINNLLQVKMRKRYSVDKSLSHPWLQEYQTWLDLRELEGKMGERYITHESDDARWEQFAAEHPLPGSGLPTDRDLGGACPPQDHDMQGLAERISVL
METHOD: PKD2 screening assay (in vitro radiometric kinase assay)
Type: biochemical
ASSAY_CONDITIONS: 10 min; ESI table, initial screening of all analogues at 1µM; read-out: % PKD2 activity remaining (1µM) (average ±SD)
Description: All 35 described analogues were characterized in vitro via an initial screening at 1 μM against PKD2. […] scanning of a coomassie stained SDS-polyacrylamide gel. […] determinations. […] Subsequently the papers were air-dried and counted using the Tri-Carb 2810 TR scintillation counter (Perkin-Elmer). Percentage of PKD2 inhibition was determined relative to a condition where no inhibitor was added (0,1% dimethylsulfoxide (DMSO)). […]
MEASUREMENT_LABEL: remaining activity at 1 µM (%)

MOLECULE: CC(C)(C)n1nc(Cc2ccc(Cl)c(Cl)c2)c2c(N)ncnc21
remaining activity at 1 µM, %: 78
--
MOLECULE: CCCCNc1nc(N)c2c(-c3ccc(OC)cc3)nn(C(C)(C)C)c2n1 [Compound 13d]
remaining activity at 1 µM, %: 80
--
MOLECULE: CC(C)(C)c1ccc(-c2nn(C(C)(C)C)c3ncnc(N)c23)cc1
remaining activity at 1 µM, %: 93
--
MOLECULE: CC(C)(C)n1nc(-c2ccc(C#N)cc2)c2c(N)ncnc21
remaining activity at 1 µM, %: 97
--
MOLECULE: Cn1nc(Cc2cccc(Cl)c2)c2c(N)ncnc21
remaining activity at 1 µM, %: 83
--
MOLECULE: CCCCNc1nc(N)c2c(-c3cccc(Cl)c3)nn(C(C)(C)C)c2n1 [Compound 13b]
remaining activity at 1 µM, %: 81

P. CC(C)(C)n1nc(-c2ccc3ccccc3c2)c2c(N)ncnc21
Q. CC(C)(C)n1nc(CCCc2ccccc2)c2c(N)ncnc21
stdin: Identify the item whose remaining activity at 1 µM is the smaller number: P or Q Answer with the label corresponding to your selection.
stdout: P
(P: 59%, Q: 101%)

* * *

EXPERIMENTAL_TARGET: PKD2 (Homo sapiens, UniProt Q9BZL6)
Construct: made in house; host or cells: HEK293T cells, transient transfection with pDEST27-PRKD2, stimulated with 500 nM PDB before lysis
Sequence (Q9BZL6 1-878): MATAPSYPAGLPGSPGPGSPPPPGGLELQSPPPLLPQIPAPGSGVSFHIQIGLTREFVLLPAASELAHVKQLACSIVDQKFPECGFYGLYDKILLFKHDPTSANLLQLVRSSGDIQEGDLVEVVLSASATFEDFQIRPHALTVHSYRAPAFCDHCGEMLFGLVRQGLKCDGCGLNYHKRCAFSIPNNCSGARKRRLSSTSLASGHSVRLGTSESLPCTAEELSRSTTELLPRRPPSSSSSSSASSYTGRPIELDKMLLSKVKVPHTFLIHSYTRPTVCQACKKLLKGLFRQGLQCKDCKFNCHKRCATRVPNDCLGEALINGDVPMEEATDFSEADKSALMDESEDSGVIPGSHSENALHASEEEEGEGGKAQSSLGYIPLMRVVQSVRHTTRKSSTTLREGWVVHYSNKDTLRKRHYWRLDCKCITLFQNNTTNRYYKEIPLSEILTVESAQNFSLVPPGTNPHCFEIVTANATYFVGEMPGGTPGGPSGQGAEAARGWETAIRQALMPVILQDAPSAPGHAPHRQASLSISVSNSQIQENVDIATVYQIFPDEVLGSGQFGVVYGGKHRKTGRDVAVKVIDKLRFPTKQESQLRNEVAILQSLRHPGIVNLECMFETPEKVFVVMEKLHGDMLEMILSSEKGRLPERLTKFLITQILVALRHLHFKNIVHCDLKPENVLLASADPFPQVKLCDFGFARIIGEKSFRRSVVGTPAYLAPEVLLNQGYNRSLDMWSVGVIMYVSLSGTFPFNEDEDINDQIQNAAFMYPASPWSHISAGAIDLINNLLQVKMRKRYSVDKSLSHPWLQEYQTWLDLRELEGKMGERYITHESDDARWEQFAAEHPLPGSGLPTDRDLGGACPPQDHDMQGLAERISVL
METHOD: PKD2 screening assay (in vitro radiometric kinase assay)
Assay type: biochemical
ASSAY_CONDITIONS: 10 min; ESI table, initial screening of all analogues at 1µM; read-out: % PKD2 activity remaining (1µM) (average ±SD)
MEASUREMENT_LABEL: remaining activity at 1 µM (%)

MOLECULE: CCCCNc1nc(N)c2c(-c3ccc4ccccc4c3)nn(C(C)(C)C)c2n1 [Compound 13g]
ENDPOINT_VALUE: 76
--
MOLECULE: C=Cc1ccc(-c2nn(C(C)(C)C)c3ncnc(N)c23)cc1
ENDPOINT_VALUE: 84
--
MOLECULE: CC(C)(C)n1nc(-c2ccccc2)c2c(N)ncnc21
ENDPOINT_VALUE: 77
--
MOLECULE: Cn1nc(CCCCc2ccccc2)c2c(N)ncnc21
ENDPOINT_VALUE: 98
--
MOLECULE: COc1ccc(-c2nn(C(C)(C)C)c3ncnc(N)c23)cc1
ENDPOINT_VALUE: 80
--
MOLECULE: CC(C)(C)n1nc(-c2ccccc2Cl)c2c(N)ncnc21
ENDPOINT_VALUE: 73
